B1: TPR t1 (parent)
chain: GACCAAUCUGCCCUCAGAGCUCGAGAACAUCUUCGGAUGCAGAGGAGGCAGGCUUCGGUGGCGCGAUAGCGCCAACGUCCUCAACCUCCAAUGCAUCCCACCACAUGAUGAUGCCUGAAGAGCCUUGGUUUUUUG

variants of: B1; test: polymerase ribozyme fitness, log enrichment relative to wild type (log ratio); higher = more active; in vitro selection for triplet polymerase activity
Could you please classify the records by polymerase ribozyme fitness (log ratio) using these ranges: range 1 (below -3), range 2 (-3 to below -1), range 3 (-1 or more)

Which polymerase ribozyme fitness (log ratio) category applies to C8G G10C G23C G25A G60C C88G G110A here?
range 1

Likewise for C94A A105C ?
range 1

Next variant: C53A G71U C86U A100U G110U
range 1

Proceed to C56U U130G
range 2

Subsequent entry: A29C C70U
range 2

Follow-up entry: U7A C15G C88U C124U
range 3

For C11G A37U A41U A95C U106C C124A then?
range 2

Param item: G44U A50C C73U U92C
range 2

Next variant: C28U C72G
range 2

Repeat for the following variant: A43C A118U
range 2

Repeat for the following variant: U30C G71U
range 1

Next entry: C53G C115G
range 2

Now the variant C4A G23A A50G G61C U87C A95G G117U C123G
range 1

Same for C70G A75C C115A
range 2

Another variant to look at: C8G A16C C62U C94A U112G U130C
range 2

Cool, now A37G A118U
range 3

Queued: G63U C101A
range 2

What do you have for C82A U112A C114G ?
range 3

What would you report for C104U ?
range 3

// repeat for C13U U131A and report
range 3

Entry to check: A6C G57C C72U
range 3

// next record G52U C88U C98A G120U
range 1

Moving on to C56U A90G
range 3

Okay, and G52U C123A ?
range 3

Now this one: A29U C49U C64U U106A C115A U132C
range 2

Check G19U G45C A91C A111C too.
range 1

Moving on to A2G C34A U55A C70G U112C
range 1

And what about the variant G23C G45C G51U G71C G120C ?
range 1

Repeat for the following variant: C53G G71U
range 3

Please give the result for U14A C72G too.
range 2
